B1: scFv; the commonest letter at each place (parent)
chain 1: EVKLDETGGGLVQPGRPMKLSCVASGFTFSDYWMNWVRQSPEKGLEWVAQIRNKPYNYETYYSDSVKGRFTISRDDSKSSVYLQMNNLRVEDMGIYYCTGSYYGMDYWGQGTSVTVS
chain 2: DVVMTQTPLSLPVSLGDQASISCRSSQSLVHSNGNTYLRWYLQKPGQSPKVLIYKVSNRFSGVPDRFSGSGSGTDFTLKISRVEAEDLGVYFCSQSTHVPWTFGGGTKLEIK

- Variants of: B1
- TEST_DETAILS: Kd (Tite-Seq)
- MEASUREMENT_CONTEXT: with fluorescein; format: scFv 4-4-20, heavy + light
pKd: −log10 of the molar value.
ASSAY_ENDPOINT: pKd

Examples with their reported pKd follow.
• chain 1 T28F M34A = 7.72
• chain 1 Y32H N35D = ≤ 5.00

Using the record for chain 1 N35L W36I , report its pKd.
≤ 5.00

Using the record for chain 1 G100H Y107H , report its pKd.
≤ 5.00

Using the record for chain 1 G100C , report its pKd.
8.79

Using the record for chain 1 N35S W36Y , report its pKd.
≤ 5.00

Using the record for chain 1 M105V G109I , report its pKd.
≤ 5.00

Using the record for chain 1 F29C W33E , report its pKd.
≤ 5.00

Using the record for chain 1 F29S W36Q , report its pKd.
≤ 5.00

Using the record for chain 1 Y102V Y103C , report its pKd.
≤ 5.00

Using the record for chain 1 W33S , report its pKd.
≤ 5.00

Using the record for chain 1 Y32N M34G , report its pKd.
≤ 5.00

Using the record for chain 1 Y107N G109K , report its pKd.
≤ 5.00

Using the record for chain 1 D106A G109H , report its pKd.
≤ 5.00

Using the record for chain 1 G104A M105P , report its pKd.
≤ 5.00

Using the record for chain 1 W33M V37L , report its pKd.
≤ 5.00

Using the record for chain 1 S101V Y107H , report its pKd.
≤ 5.00

Using the record for chain 1 T28L S30N , report its pKd.
8.91

Using the record for chain 1 Y32R W33H W36S , report its pKd.
≤ 5.00

Using the record for chain 1 F29L S30L , report its pKd.
≤ 5.00

Each recorded value in this set is attributed to the FLAb antibody collection (doi:10.7554/elife.23156).
